Measured MIC by item
- System: Staphylococcus aureus
- Test Protocol: Minimum inhibitory activity against Staphylococcus aureus ATCC 6538P
- Assay type: functional

These recorded examples may help you get a feel for the data.
Please fill in: MIC reported for CC[C@H]1OC(=O)[C@H](C)[C@@H](OC2C[C@@](C)(OC)[C@@H](O)[C@H](C)O2)[C@H](C)[C@@H](OC2O[C@H](C)C[C@H](N(C)C3CCCC3)[C@H]2O)[C@@](C)(OC)C[C@@H](C)C(=O)[C@H](C)[C@H]2N(CCc3ccc(Cl)c(Cl)c3)C(=O)O[C@]12C (stereo partly drawn) = > 100 µg/mL

Lab note: CC[C@H]1OC(=O)[C@H](C)[C@@H](OC(=O)N2C(=O)OC[C@@H]2C)[C@H](C)[C@@H](OC2O[C@H](C)C[C@H](N(C)C3CCCCC3)[C@H]2O)[C@@](C)(OC)C[C@@H](C)C(=O)[C@H](C)[C@H]2N(CCc3ccc(Cl)c(Cl)c3)C(=O)O[C@]12C (stereo partly drawn) gave MIC of > 100 µg/mL

Here is another compound to look at.
# MIC of CC[C@H]1OC(=O)[C@H](C)[C@@H](OC2C[C@@](C)(OC)[C@@H](O)[C@H](C)O2)[C@H](C)[C@@H](OC2O[C@H](C)C[C@H](N(C)CC3CC3)[C@H]2O)[C@@](C)(OC)C[C@@H](C)C(=O)[C@H](C)[C@H]2N(CCc3ccc(Cl)cc3)C(=O)O[C@]12C (stereo partly drawn) = > 100 µg/mL
